Tested on: ZEAMX (Corn, Field)
Test: Postemergence herbicidal evaluation
Assay type: in vivo, Zea mays, L.
Conditions: postemergence, rate 0.0620 kg/ha
Measurement name: ZEAMX herbicidal rating

Known ZEAMX herbicidal rating results, listed for orientation:
>>> print(df.to_string())
                                   compound          test_system         measurement_name  reported
0  Cn1c(C(F)(F)F)cc(=O)n(-c2ccc3snc(C4=NCCO4)c3c2)c1=O  ZEAMX (Corn, Field)  ZEAMX herbicidal rating       5.0
1  CC1=CC(C)(C)OC(c2nsc3ccc(-n4c(=O)cc(C(F)(F)F)n(C)c4=O)cc23)C1 (centres unmarked)  ZEAMX (Corn, Field)  ZEAMX herbicidal rating       5.5
2  COC1(c2nsc3ccc(-n4c(=O)cc(C(F)(F)F)n(C)c4=O)cc23)N=C(N(C)C)NC1=O (centres unmarked)  ZEAMX (Corn, Field)  ZEAMX herbicidal rating       5.5
3  CSCC1COC(c2nsc3ccc(-n4c(=O)cc(C(F)(F)F)n(C)c4=O)cc23)O1 (centres unmarked)  ZEAMX (Corn, Field)  ZEAMX herbicidal rating       6.0
4  Cn1c(C(F)(F)F)cc(=O)n(-c2ccc3snc(-c4sccc4CO)c3c2)c1=O  ZEAMX (Corn, Field)  ZEAMX herbicidal rating       5.0
5  Cn1c(C(F)(F)F)cc(=O)n(-c2ccc3snc(-c4sccc4Cl)c3c2)c1=O  ZEAMX (Corn, Field)  ZEAMX herbicidal rating       3.5

Please fill in: ZEAMX herbicidal rating reported for CC(C)C1COC(c2nsc3ccc(-n4c(=O)cc(C(F)(F)F)n(C)c4=O)cc23)=N1 (centres unmarked) = 5.0

Please fill in: ZEAMX herbicidal rating reported for C[C@@H]1OC(c2nsc3cc(F)c(-n4c(=O)cc(C(F)(F)F)n(C)c4=O)cc23)O[C@@H]1C (some centres unmarked) = 6.0
